Sourced from patent US20230026611A1

Below: a set of entries, each annotated with reported IC50.
Measurement Target: hERG channel (Homo sapiens, UniProt Q12809)
Sequence (Q12809 whole entry): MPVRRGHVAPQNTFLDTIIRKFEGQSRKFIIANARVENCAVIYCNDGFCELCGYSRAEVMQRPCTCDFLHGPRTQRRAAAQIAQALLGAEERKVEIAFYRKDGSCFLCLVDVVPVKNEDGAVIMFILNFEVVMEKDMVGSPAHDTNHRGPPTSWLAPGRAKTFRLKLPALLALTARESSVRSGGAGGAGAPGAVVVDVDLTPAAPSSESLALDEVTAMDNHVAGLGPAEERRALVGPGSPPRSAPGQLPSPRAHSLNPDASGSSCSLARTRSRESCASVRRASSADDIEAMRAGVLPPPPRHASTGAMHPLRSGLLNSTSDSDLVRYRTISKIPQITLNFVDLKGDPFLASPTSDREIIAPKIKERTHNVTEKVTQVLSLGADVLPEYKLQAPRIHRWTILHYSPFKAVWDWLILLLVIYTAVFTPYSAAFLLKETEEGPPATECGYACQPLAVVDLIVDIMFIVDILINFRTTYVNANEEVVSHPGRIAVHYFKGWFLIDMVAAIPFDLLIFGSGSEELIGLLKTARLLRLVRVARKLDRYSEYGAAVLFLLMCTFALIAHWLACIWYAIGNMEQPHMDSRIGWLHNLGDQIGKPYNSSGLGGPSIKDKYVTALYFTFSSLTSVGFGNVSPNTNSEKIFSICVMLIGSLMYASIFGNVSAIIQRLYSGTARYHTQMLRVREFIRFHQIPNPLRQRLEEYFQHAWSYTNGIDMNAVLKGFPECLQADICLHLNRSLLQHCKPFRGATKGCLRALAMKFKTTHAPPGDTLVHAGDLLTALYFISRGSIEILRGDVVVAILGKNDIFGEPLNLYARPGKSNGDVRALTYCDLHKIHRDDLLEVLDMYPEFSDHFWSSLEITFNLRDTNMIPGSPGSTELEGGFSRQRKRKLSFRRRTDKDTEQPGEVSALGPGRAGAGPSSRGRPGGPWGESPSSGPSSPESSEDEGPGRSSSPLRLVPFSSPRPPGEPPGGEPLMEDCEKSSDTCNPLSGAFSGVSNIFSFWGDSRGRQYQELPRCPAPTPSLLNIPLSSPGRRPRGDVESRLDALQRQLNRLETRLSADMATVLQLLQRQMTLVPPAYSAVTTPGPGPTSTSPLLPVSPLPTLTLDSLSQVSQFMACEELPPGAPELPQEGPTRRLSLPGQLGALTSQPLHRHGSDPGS
Test Summary: hERG electrophysiology, automated whole-cell patch clamp (Patchliner) in CHO-K1 cells stably expressing hERG
Measurement Name: IC50

In [3]: df
Out[3]:
                                   compound  measurement_name   result
0  O=S(=O)(NCC1CC(c2c(O)ccc(Cl)c2Cl)CCN1)c1cccnc1 (stereo not drawn) [Compound 6]              IC50  > 30 µM
1  O=C(C[C@H]1CC(c2c(O)ccc(Cl)c2Cl)CCN1)N1CCOCC1 (single isomer, unassigned) [Compound 67]              IC50  > 30 µM
2  O=C(NCC1CC(c2c(O)ccc(Cl)c2Cl)CCN1)C1CC1 (stereo not drawn) [Compound 106]              IC50  > 30 µM

---

Measurement Target: hERG channel (Homo sapiens, UniProt Q12809)
Test Summary: hERG electrophysiology, automated whole-cell patch clamp (Patchliner) in CHO-K1 cells stably expressing hERG
Measurement Name: IC50

In [3]: df
Out[3]:
                                    molecule    result
 0                  Cc1cc(O)c(C2CCNCC2)cc1Cl   < 30 µM
 1  CC(=O)NCC1CC(c2c(O)ccc(Cl)c2Cl)CCN1 (stereo not drawn)   > 30 µM
 2  OCC1CC(c2cc(Cl)c(Cl)cc2O)CCN1 (stereo not drawn)   > 30 µM
 3  CS(=O)(=O)NC[C@H]1C[C@@H](c2c(O)ccc(Cl)c2Cl)CCN1 (relative stereo)   > 30 µM
 4  NC[C@H]1C[C@@H](c2c(O)ccc(Cl)c2Cl)CCN1 (relative stereo)   > 30 µM
 5              NC1CCN(c2cc(Cl)c(Cl)cc2O)CC1   < 30 µM
 6  O=C([C@H](O)CO)N1CCC(c2c(O)ccc(Cl)c2Cl)CC1   > 30 µM
 7  NC(=O)[C@@H]1C[C@H](c2c(O)ccc(Cl)c2Cl)CCN1 (single isomer, unassigned)   > 30 µM
 8  O=S1(=O)CCCN1CC1CC(c2c(O)ccc(Cl)c2Cl)CCN1 (stereo not drawn)   < 30 µM
 9  NC(=O)[C@H]1CNCC[C@H]1c1cc(Cl)c(Cl)cc1O (single isomer, unassigned)   > 30 µM
10  Nc1nnc(C2CC(c3c(O)ccc(Cl)c3Cl)CCN2)o1 (stereo not drawn)   > 30 µM
11  O=C(NC1CNC1)C1CCCC(c2c(O)ccc(Cl)c2Cl)N1 (stereo not drawn)   > 30 µM
12  O=C(C[C@H]1C[C@@H](c2c(O)ccc(Cl)c2Cl)CCN1)N1CCOCC1 (relative stereo)   > 30 µM
13    O=C(CO)N1CCC(c2c(O)cc(Cl)c(Cl)c2Cl)CC1   < 30 µM
14  CNC(=O)C[C@H]1C[C@@H](c2c(O)ccc(Cl)c2Cl)CCN1 (single isomer, unassigned) [Compound 30]   > 30 µM
15                Oc1cc(Cl)c(Cl)cc1C1=CCNCC1   < 30 µM
16             Oc1cc(Cl)c(Cl)c(Cl)c1C1CCNCC1   < 30 µM
17  NC(=O)[C@H]1C[C@@H](c2c(O)cc(Cl)c(Cl)c2Cl)CCN1 (single isomer, unassigned)   < 30 µM
18                 Oc1ccc(Cl)c(Cl)c1C1CCNCC1   < 30 µM
19  Cn1cc(NC(=O)C[C@H]2C[C@@H](c3c(O)ccc(Cl)c3Cl)CCN2)cn1 (relative stereo)   > 30 µM
20  O=C(NC1CNC1)[C@@H]1CN[C@@H](c2c(O)ccc(Cl)c2Cl)C1 (single isomer, unassigned)  > 100 µM
21  NC(=O)C[C@H]1C[C@@H](c2c(O)ccc(Cl)c2Cl)CCN1 (relative stereo)   > 30 µM
22  Oc1cc(Cl)c(Cl)cc1C1CCCCNC1 (stereo not drawn)   < 30 µM
23  O=C(NCC1CC(c2c(O)ccc(Cl)c2Cl)CCN1)C1COC1 (stereo not drawn)   > 30 µM
24  NC(=O)[C@H]1C[C@@H](c2c(O)ccc(Cl)c2Cl)CCN1 (single isomer, unassigned)   > 30 µM
25                 Oc1cc(Cl)c(Cl)cc1N1CCNCC1   < 30 µM
26  O=C(C[C@@H]1C[C@H](c2c(O)ccc(Cl)c2Cl)CCN1)N1CCOCC1 (single isomer, unassigned)   > 30 µM
27                 Oc1cc(Cl)c(Cl)cc1C1CCNCC1   < 30 µM
28  NC(=O)NCC1CC(c2c(O)ccc(Cl)c2Cl)CCN1 (stereo not drawn)   > 30 µM
29  O=C(NC1CNC1)C1CCC(c2c(O)ccc(Cl)c2Cl)NC1 (stereo not drawn)  > 100 µM
30  NC(=O)[C@@H]1C[C@H](c2c(O)cc(Cl)c(Cl)c2Cl)CCN1 (single isomer, unassigned)   < 30 µM
31  O=S(=O)(NC[C@H]1C[C@@H](c2c(O)ccc(Cl)c2Cl)CCN1)C1CC1 (relative stereo)   > 30 µM
32                   Oc1ccc2ccccc2c1C1CCNCC1   < 30 µM
